The origin of these recorded values is patent US20250092039A1.

test: Pharmacokinetics following single intravenous and oral gavage dosing (AUC0-24h); type: in vivo; conditions: mouse, plasma; single oral dose 30 mg/Kg, male CD-1 mice
log10 AUC(0-t): recorded values
Annotation: log10 of AUC(0-t), ng·h/mL basis.

Before answering, review these 4 worked examples.
>>> reportedresult("CCc1c(F)ccc2cc(O)cc(-c3ncc4c(N5CCC[C@@](C)(O)C5)nc(OCC5(CN6CCC7(CCC(N8CCN(c9cc(F)c(C%10CCC(=O)NC%10=O)c(F)c9)CC8)CC7)CC6)CC5)nc4c3F)c12 (some centres unmarked)")
3.36
>>> reportedresult("CCc1cccc2cc(O)cc(-c3ncc4c(N5CCC[C@@](C)(O)C5)nc(OCC5(CN6CCC(F)(CN7CC8(CCN(c9ccc%10c(c9)CN(C9CCC(=O)NC9=O)C%10=O)CC8)C7)CC6)CC5)nc4c3F)c12 (some centres unmarked)")
2.73
>>> reportedresult("CCc1c(F)ccc2cc(O)cc(-c3ncc4c(N5CCC[C@@](C)(O)C5)nc(OCC5(CN6CCC(CN7CCN(c8ccc9c(c8)CN([C@H]8CCC(=O)NC8=O)C9=O)CC7)CC6)CC5)nc4c3F)c12")
2.34
>>> reportedresult("CCc1c(F)ccc2cc(O)cc(-c3ncc4c(N5CCC[C@@](C)(O)C5)nc(OCC5(CN6CCC(C)(CN7CCN(c8cc(F)c(C9CCC(=O)NC9=O)c(F)c8)CC7)CC6)CC5)nc4c3F)c12 (some centres unmarked)")
4.24

Please find the next compound below.
Input line: Tell me measured log10 AUC(0-t) for `CCc1c(F)ccc2cc(O)cc(-c3ncc4c(N5CCC[C@]6(CCO6)C5)nc(OCC5(CN6CCC(F)(CN7CCN(c8ccc9c(c8)CN([C@H]8CCC(=O)NC8=O)C9=O)CC7)CC6)CC5)nc4c3F)c12` please.
Output line: 3.12

* * *

target: KRAS G12V (Homo sapiens (Human), UniProt P01116, G12V); test: KRAS G12V degradation in SW620 cells (Western blot, DC50); format: cell-based; details: 24 hours
Sequence (P01116-2 other isoform, or with tags, fused parts or gaps G12V): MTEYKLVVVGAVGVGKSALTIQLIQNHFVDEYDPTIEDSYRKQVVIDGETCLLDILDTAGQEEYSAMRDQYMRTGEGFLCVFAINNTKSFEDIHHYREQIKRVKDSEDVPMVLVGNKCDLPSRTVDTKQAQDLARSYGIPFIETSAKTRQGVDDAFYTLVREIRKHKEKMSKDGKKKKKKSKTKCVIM
attributeMeasured: DC50

Before answering, review these 3 worked examples.
>>> reportedresult("CCc1c(F)ccc2cc(O)cc(-c3ncc4c(N5CCC[C@@](C)(O)C5)nc(OCC5(CN6CCC(C)(CN7CC8(CCN(c9ccc%10c(c9)CN([C@H]9CCC(=O)NC9=O)C%10=O)CC8)C7)CC6)CC5)nc4c3F)c12 [Compound 40]")
"< 1 nM"
>>> reportedresult("CCc1c(F)ccc2cc(O)cc(-c3ncc4c(N5CCC[C@@](C)(O)C5)nc(OCC5(CN6CCC(CN7CCN(c8ccc(C9CCC(=O)NC9=O)cc8)CC7)CC6)CC5)nc4c3F)c12 (some centres unmarked) [Compound 14]")
"> 100 nM"
>>> reportedresult("CCc1c(F)ccc2cc(O)cc(-c3ncc4c(N5CCC[C@@](C)(O)C5)nc(OCC5(CN6CCC(CN7CCC(N8CCN(c9ccc%10c(c9)CN([C@H]9CCC(=O)NC9=O)C%10=O)CC8)CC7)CC6)CC5)nc4c3F)c12 [Compound 148]")
"< 1 nM"

Input line: Tell me measured DC50 for CCc1c(F)ccc2cc(O)cc(-c3ncc4c(N5CCC[C@@](C)(OC)C5)nc(OCC5(CN6CCC7(CC6)CC(CN6CCN(c8ccc9c(c8)CN([C@H]8CCC(=O)NC8=O)C9=O)CC6)C7)CC5)nc4c3F)c12 [Compound 36] please.
Output line: > 100 nM

Input line: Tell me measured DC50 for CCc1c(F)ccc2cc(O)cc(-c3ncc4c(N5CCC[C@]6(CCO6)C5)nc(OCC5(CN6CC7(CCC(N8CCN(c9cc(F)c(C%10CCC(=O)NC%10=O)c(F)c9)CC8)CC7)C6)CC5)nc4c3F)c12 (some centres unmarked) [Compound 85] please.
Output line: 1 to 10 nM

* * *

target: KRAS-G12V/RAF1 (Homo sapiens (Human), UniProt P01116, G12V); experiment: KRAS/RAF1 binding inhibition assay (AlphaScreen)
Sequence (P01116-2 other isoform, or with tags, fused parts or gaps G12V): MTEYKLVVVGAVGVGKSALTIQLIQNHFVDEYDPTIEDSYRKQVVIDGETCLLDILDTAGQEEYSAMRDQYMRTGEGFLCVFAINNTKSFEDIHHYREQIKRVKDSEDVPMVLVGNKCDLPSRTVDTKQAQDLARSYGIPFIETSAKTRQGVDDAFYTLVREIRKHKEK
pIC50: −log10 of the molar value.
attributeMeasured: pIC50

>>> reportedresult("CCc1c(F)ccc2cc(O)cc(-c3ncc4c(N5CCC[C@@](C)(O)C5)nc(OCC5(CN6CCC(C)(CN7CCN(c8ccc9c(c8)CN([C@H]8CCC(=O)NC8=O)C9=O)CC7)CC6)CC5)nc4c3F)c12")
"6.70 to 7.70"
>>> reportedresult("CCc1c(F)ccc2cc(O)cc(-c3ncc4c(N5CCC[C@@](C)(O)C5)nc(OCC5(CN6CCC(CN7CCC(N8CCN(c9ccc%10c(c9)CN([C@H]9CCC(=O)NC9=O)C%10=O)CC8)CC7)CC6)CC5)nc4c3F)c12")
"> 7.70"
>>> reportedresult("CCc1c(F)ccc2cc(O)cc(-c3ncc4c(N5CCC[C@@](C)(O)C5)nc(OCC5(CN6CCC7(CCC(N8CCN(c9cc(F)c(C%10CCC(=O)NC%10=O)c(F)c9)CC8)CC7)CC6)CC5)nc4c3F)c12 (stereo partly drawn)")
"6.70 to 7.70"
>>> reportedresult("CCc1c(F)ccc2cc(O)cc(-c3ncc4c(N5CCC[C@@](C)(O)C5)nc(OCC5(CN6CCN(CC7CN(c8ccc9c(c8)CN(C8CCC(=O)NC8=O)C9=O)C7)CC6)CC5)nc4c3F)c12 (stereo partly drawn)")
"6.70 to 7.70"
>>> reportedresult("CCc1cccc2cc(O)cc(-c3ncc4c(N(C)[C@@H]5C[C@H]5F)nc(OCC5(CN6CCC7(CC6)CC(CN6CCN(c8ccc9c(c8)CN([C@H]8CCC(=O)NC8=O)C9=O)CC6)C7)CC5)nc4c3F)c12")
"< 6.70"

Input line: Tell me measured pIC50 for `CCc1c(F)ccc2cc(O)cc(-c3ncc4c(N5CCC[C@@H](O)CC5)nc(OCC5(CN6CCC7(CC6)CC(CN6CCN(c8ccc9c(c8)CN([C@H]8CCC(=O)NC8=O)C9=O)CC6)C7)CC5)nc4c3F)c12` please.
Output line: < 6.70

Input line: Tell me measured pIC50 for `CCc1c(F)ccc2cc(O)cc(-c3ncc4c(N5CCC[C@@](C)(O)C5)nc(OCC5(CN6CC(N7CC(CN8CCN(c9ccc%10c(c9)CN([C@@H]9CCC(=O)NC9=O)C%10=O)CC8)C7)C6)CC5)nc4c3F)c12` please.
Output line: > 7.70

Input line: Tell me measured pIC50 for `CCc1cccc2cc(O)cc(-c3ncc4c(N5CCC[C@@](C)(O)C5)nc(OCC5(CN6CCC(N7CC8(CCN(c9ccc%10c(c9)CN([C@H]9CCC(=O)NC9=O)C%10=O)CC8)C7)CC6)CC5)nc4c3F)c12` please.
Output line: > 7.70

Input line: Tell me measured pIC50 for `CCc1cccc2cc(O)cc(-c3ncc4c(N5CCC[C@@](C)(O)C5)nc(OCC5(CN6CC7(CCC(F)(CN8CCN(c9ccc%10c(c9)CN([C@H]9CCC(=O)NC9=O)C%10=O)CC8)CC7)C6)CC5)nc4c3F)c12` please.
Output line: 6.70 to 7.70

* * *

DC50: recorded values
Target: KRAS G12V (Homo sapiens (Human), UniProt P01116, G12V)
Test: KRAS G12V degradation in SW620 cells (Western blot, DC50)
Type: cell-based
Conditions: 24 hours
Protocol: SW620 (KRAS G12V homozygous), AsPC1 (KRAS G12D homozygous), MIA PaCa2 (KRAS G12C homozygous), A549 (KRAS G12S homozygous) and MCF7 (KRAS WT) cells were obtained from American Type Culture Collection (ATCC). […] The signal intensity of target proteins was calculated using ImageStudio software. […] Relative KRAS expression level was determined by the following formula: […] The percentage of KRAS expression was calculated using Microsoft Excel. […]

Before answering, review these 5 worked examples.
>>> reportedresult("CCc1c(F)ccc2cc(O)cc(-c3ncc4c(N5CCC[C@@](C)(O)C5)nc(OCC5(CN6CCC(N7CC(N8CCN(c9ccc%10c(c9)CN([C@H]9CCC(=O)NC9=O)C%10=O)CC8)C7)CC6)CC5)nc4c3F)c12")
"< 1 nM"
>>> reportedresult("CCc1c(F)ccc2cc(O)cc(-c3ncc4c(N5CCC[C@@](C)(O)C5)nc(OCC5(CN6CCC7(CC6)CC(N6CCN(c8cc(F)c(C9CCC(=O)NC9=O)c(F)c8)CC6)C7)CC5)nc4c3F)c12 (stereo partly drawn)")
"< 1 nM"
>>> reportedresult("CCc1c(F)ccc2cc(O)cc(-c3ncc4c(N5CCOC[C@@](C)(O)C5)nc(OCC5(CN6CCC7(CC6)CC(F)(CN6CCN(c8ccc9c(c8)CN([C@H]8CCC(=O)NC8=O)C9=O)CC6)C7)CC5)nc4c3F)c12")
"< 1 nM"
>>> reportedresult("CCc1cccc2cc(O)cc(-c3ncc4c(N5CCC[C@@](C)(O)C5)nc(OCC5(CN6CCC(OC7CCN(c8ccc9c(c8)CN(C8CCC(=O)NC8=O)C9=O)CC7)CC6)CC5)nc4c3F)c12 (stereo partly drawn)")
"< 1 nM"
>>> reportedresult("CCc1c(F)ccc2cc(O)cc(-c3ncc4c(N5CCC[C@]6(CCO6)C5)nc(OCC5(CN6CCC7(CC6)CC(F)(CN6CCN(c8ccc9c(c8)CN([C@H]8CCC(=O)NC8=O)C9=O)CC6)C7)CC5)nc4c3F)c12")
"< 1 nM"

Input line: Tell me measured DC50 for `C[C@@]1(O)CCCN(c2nc(OCC3(CN4CCC(CN5CCN(c6ccc7c(c6)CN([C@H]6CCC(=O)NC6=O)C7=O)CC5)CC4)CC3)nc3c(F)c(-c4cc(O)cc5ccc(F)c(Cl)c45)ncc23)C1` please.
Output line: < 1 nM

Input line: Tell me measured DC50 for `C[C@@]1(O)CCCN(c2nc(OCC3(CN4CCC5(CCC(N6CCN(c7ccc8c(c7)CN([C@H]7CCC(=O)NC7=O)C8=O)CC6)CC5)CC4)CC3)nc3c(F)c(-c4cc(N)cc5ccc(F)c(F)c45)ncc23)C1` please.
Output line: > 100 nM

Input line: Tell me measured DC50 for CCc1c(F)ccc2cc(O)cc(-c3ncc4c(N5CCC[C@@](C)(O)C5)nc(OCC5(CN6CCC(OC7CCC8(CC7)CN(c7ccc9c(c7)CN(C7CCC(=O)NC7=O)C9=O)C8)CC6)CC5)nc4c3F)c12 (stereo partly drawn) please.
Output line: < 1 nM

Input line: Tell me measured DC50 for `CCc1c(F)ccc2cc(O)cc(-c3ncc4c(N5CCC[C@@](C)(O)C5)nc(OCC5(CN6CCC(O)(CN7CCN(c8ccc9c(c8)CN([C@H]8CCC(=O)NC8=O)C9=O)CC7)CC6)CC5)nc4c3F)c12` please.
Output line: 1 to 10 nM

Input line: Tell me measured DC50 for `C[C@@]1(O)CCCN(c2nc(OCC3(CN4CCC5(CC4)CC(CN4CCN(c6ccc7c(c6)CN([C@H]6CCC(=O)NC6=O)C7=O)CC4)C5)CC3)nc3c(F)c(-c4cc(N)cc(Cl)c4C(F)(F)F)ncc23)C1` please.
Output line: 1 to 10 nM

Input line: Tell me measured DC50 for `CCc1cccc2cc(O)cc(-c3ncc4c(N5CCOC[C@@](C)(O)C5)nc(OCC5(CN6CCC7(CC6)CC(CN6CCN(c8ccc9c(c8)CN([C@H]8CCC(=O)NC8=O)C9=O)CC6)C7)CC5)nc4c3F)c12` please.
Output line: 1 to 10 nM
